Every entry's value here was drawn from ChEMBL document CHEMBL5120807.

systemTested: Serine/threonine-protein kinase pim-1 (Homo sapiens, UniProt P11309)
Sequence (P11309 whole entry): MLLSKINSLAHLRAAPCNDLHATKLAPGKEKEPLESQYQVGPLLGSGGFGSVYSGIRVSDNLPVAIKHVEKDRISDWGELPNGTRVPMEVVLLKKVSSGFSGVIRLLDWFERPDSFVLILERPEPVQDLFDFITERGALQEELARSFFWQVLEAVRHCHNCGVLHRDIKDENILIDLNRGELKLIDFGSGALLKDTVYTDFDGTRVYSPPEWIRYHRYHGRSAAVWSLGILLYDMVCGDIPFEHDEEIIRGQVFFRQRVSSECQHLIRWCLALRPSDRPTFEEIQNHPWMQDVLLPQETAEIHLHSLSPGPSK
experimentDescription: Inhibition of human PIM1 expressed in bacterial system using histone H1 as substrate incubated for 30 mins by ADP-Glo assay kit method
Hi there, I'd appreciate the recorded IC50 for every entry that follows.
Your answer is read as µM, so omit the unit and give the number.

Request: IC50, test system Serine/threonine-protein kinase pim-1 (Homo sapiens, UniProt P11309), entry `NN1C(=O)/C(=C2\C(=O)Nc3ccc(Br)cc32)SC1=S`
1.8

Ok, now `CN1C(=O)/C(=C2/SC(=S)N(N)C2=O)c2cc(Br)ccc21`
0.77
